Each entry below carries its reported relative viability.
System: VA-ES-BJ
protocol description: relative viability vs DMSO control (72 h) (fraction); higher = more viable cells
reported conditions: 0.00152 µM
// response body must contain only the number

Reference set, count: 3
In [3]: df
Out[3]:
                                   molecule         result_type  quantitative_readout
0  C[C@@H]1CCN(C(=O)CC#N)C[C@@H]1N(C)c1ncnc2[nH]ccc12 [Tofacitinib]  relative viability                  1.02
1  Cn1cnc2c(F)c(Nc3ccc(Br)cc3F)c(C(=O)NOCCO)cc21 [Binimetinib]  relative viability                  1.07
2  CN1CCC(COc2cnc(-c3cccc(Cn4nc(-c5cccc(C#N)c5)ccc4=O)c3)nc2)CC1 [Tepotinib]  relative viability                  1.02

Give the measured relative viability of C=CC(=O)Nc1cccc(Oc2nc(Nc3ccc(N4CCN(C)CC4)cc3)nc3ccsc23)c1 [Olmutinib] .
1.01

Same thing, different molecule: Cc1nc(NC(=O)N2CCC[C@H]2C(N)=O)sc1-c1ccnc(C(C)(C)C(F)(F)F)c1 [Alpelisib]
1.03

# repeat for O=C(Cc1ccc(-c2ccc(OCCN3CCOCC3)cc2)cn1)NCc1ccccc1 [KX2-391]
1.06

Next molecule: CNC(=O)c1ccc(-c2cnc3ncc(Cc4ccc5ncccc5c4)n3n2)cc1F [Capmatinib]
1.01

----------
System: VA-ES-BJ
protocol description: relative viability vs DMSO control (72 h) (fraction); higher = more viable cells
reported conditions: 3.333 µM
result type: relative viability
Give the figure only, with no unit attached.

// solved cases for relative viability follow
In [3]: df
Out[3]:
                                   compound         result_type  quantitative_readout
0  CNC(=O)c1cc(Oc2ccc(NC(=O)Nc3ccc(Cl)c(C(F)(F)F)c3)c(F)c2)ccn1 [Regorafenib]  relative viability                  1.24
1  Cc1cc(C)c(/C=C2\C(=O)Nc3ccccc32)[nH]1 [Semaxanib]  relative viability                 0.902
2  COc1c(OCCCN2CCOCC2)ccc2c1N=C(NC(=O)c1cnc(N)nc1)N1CCN=C21 [Copanlisib]  relative viability                 0.394
3  C[C@@H]1COCCN1c1cc(-c2ccnn2C)c2ccnc(-c3ccn[nH]3)c2n1  relative viability                  0.19
4  CC(=O)Nc1cccc(-n2c(=O)n(C3CC3)c(=O)c3c(Nc4ccc(I)cc4F)n(C)c(=O)c(C)c32)c1 [Trametinib]  relative viability                 0.604
5  Cc1nc(NC(=O)N2CCC[C@H]2C(N)=O)sc1-c1ccnc(C(C)(C)C(F)(F)F)c1 [Alpelisib]  relative viability                  0.61

Which relative viability is reported for this compound? C[C@]1(O)C[C@@H](c2nc(-c3ccc4ccc(-c5ccccc5)nc4c3)c3c(N)nccn32)C1 [Linsitinib]
0.871

Subsequent entry: CCN1CCN(Cc2ccc(Nc3ncc(F)c(-c4cc(F)c5nc(C)n(C(C)C)c5c4)n3)nc2)CC1 [Abemaciclib]
0.562

----------
System: KHOS-NP
protocol description: relative viability vs DMSO control (72 h) (fraction); higher = more viable cells
reported conditions: 1.111 µM
I'd appreciate it if you marked entries Yes when relative viability is lower than 1 and No when it is not.

The following molecules have reported results that may help.
>>> print(df.to_string())
                              record_smiles  answer_label
0  COc1cc2c(Oc3ccc4[nH]c(C)cc4c3F)ncnc2cc1OCCCN1CCCC1            No
1  COCc1c(-c2cc3cc(C)cc(OC)c3s2)c2c(N)ncnn2c1CN1CCNC(=O)C1            No
2  C[C@]1(O)C[C@@H](c2nc(-c3ccc4ccc(-c5ccccc5)nc4c3)c3c(N)nccn32)C1            No
3  C[C@@H]1COCCN1c1cc(-c2ccnn2C)c2ccnc(-c3ccn[nH]3)c2n1           Yes
4  Cc1ccc(NC(=O)c2ccc(CN3CCN(C)CC3)cc2)cc1Nc1nc(-c2cccnc2)cs1           Yes

Let's switch to this molecule now.
Item `CNC(=O)c1ccc(-c2cnc3ncc(Cc4ccc5ncccc5c4)n3n2)cc1F` : relative viability beneath 1, strictly?
No
